assay.overview: AUC (0 to infinity) in Sprague-Dawley rat at 5 mg/kg, po or 1 mg/kg, iv
Assay type: ADME, organism-based
run.parameters: in vivo
Classify: yes when AUC(0-inf) is strictly less than 5000 ng·h/mL; no when AUC(0-inf) is not.

Determine whether this compound shows AUC(0-inf) lower than 5000 ng·h/mL (ties excluded): `C[C@H]1OC(=O)[C@@H]2C[C@@H]3C[C@H](NCC#N)CC[C@H]3[C@H](/C=C/c3ccc(-c4cccc(F)c4)cn3)[C@H]12`
no

Continue with CCOC(=O)N[C@@H]1CC[C@@H]2[C@@H](C1)C[C@H]1C(=O)O[C@H](C)[C@H]1[C@H]2/C=C/c1ccc(-c2cccc(F)c2)cn1 [VORAPAXAR]
yes

Now the same for `CCOC(=O)N[C@@H]1CC[C@@H]2[C@@H](C1)C[C@H]1C(=O)O[C@H](C)[C@H]1[C@H]2/C=C/c1ccc(-c2ccccn2)cc1`
no

Then what about the compound `Cc1ccnc(N[C@@H]2CC[C@@H]3[C@@H](C2)C[C@H]2C(=O)O[C@H](C)[C@H]2[C@H]3/C=C/c2ccc(-c3cccc(F)c3)cn2)n1` ?
yes

====

target.or.system: Proteinase-activated receptor 1 (Homo sapiens) (UniProt P25116)
Sequence (whole entry): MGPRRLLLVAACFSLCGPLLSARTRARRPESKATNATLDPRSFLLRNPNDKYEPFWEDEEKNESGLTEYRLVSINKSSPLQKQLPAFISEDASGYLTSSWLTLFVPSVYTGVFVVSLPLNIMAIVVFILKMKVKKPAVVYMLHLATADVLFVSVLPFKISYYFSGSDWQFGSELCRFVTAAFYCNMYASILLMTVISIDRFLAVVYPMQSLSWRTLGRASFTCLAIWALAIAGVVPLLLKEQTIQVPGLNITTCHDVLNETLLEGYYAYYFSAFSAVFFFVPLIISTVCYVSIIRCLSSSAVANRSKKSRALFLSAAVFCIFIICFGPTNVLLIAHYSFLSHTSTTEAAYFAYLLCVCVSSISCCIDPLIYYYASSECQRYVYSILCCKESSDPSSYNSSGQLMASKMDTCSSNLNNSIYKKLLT
assay.overview: Antagonist activity at human PAR1 expressed in KNRK cells assessed as inhibition of agonist-induced intracellular calcium mobilization at 10^-7 M by fluorimetric assay relative to control
Format: functional, cell-based
Exercise: state measured inhibition for each of the molecules provided.
Include the unit after the number when you answer.

Need inhibition, item `C[C@H]1OC(=O)[C@@H]2C[C@@H]3C[C@H](Nc4nc5ccccc5o4)CC[C@H]3[C@H](/C=C/c3ccc(-c4cccc(F)c4)cn3)[C@H]12`
3%

And what about the molecule `CCOC(=O)N[C@@H]1CC[C@@H]2[C@@H](C1)C[C@H]1C(=O)O[C@H](C)[C@H]1[C@H]2/C=C/c1ccc(-c2cccc(F)c2)cn1` ?
25%

Same read-out for `CCOC(=O)N[C@@H]1CC[C@@H]2[C@@H](C1)C[C@H]1C(=O)O[C@H](C)[C@H]1[C@H]2/C=C/c1ccc(-c2cccc(F)c2)cc1` ?
-7%

Same thing, different molecule: `C[C@H]1OC(=O)[C@]2(NCC(=O)O)C[C@@H]3CCCC[C@H]3[C@H](/C=C/c3ccc(-c4cccc(F)c4)cn3)[C@H]12`
23%

Try `C[C@H]1OC(=O)[C@]2(NCC#N)C[C@@H]3CCCC[C@H]3[C@H](/C=C/c3ccc(-c4cccc(F)c4)cn3)[C@H]12` next.
-4%

Below: the item to evaluate.
Name the recorded inhibition for `CCOC(=O)N[C@@H]1CC[C@@H]2[C@@H](C1)C[C@H]1C(=O)O[C@H](C)[C@H]1[C@H]2/C=C/c1ccc(-c2ccccn2)cc1` .
5%

====

target.or.system: Proteinase-activated receptor 1 (Homo sapiens, UniProt P25116)
assay.overview: Antagonist activity at human PAR1 expressed in KNRK cells assessed as inhibition of agonist-induced intracellular calcium mobilization by fluorimetric assay
Note to self: IC50 under 600 nM means T, ties and anything higher get F.

Study these solved cases before continuing.
Does `CCOC(=O)N[C@@H]1CC[C@@H]2[C@@H](C1)C[C@H]1C(=O)O[C@H](C)[C@H]1[C@H]2/C=C/c1ccc(-c2cccc(F)c2)cn1` have IC50 strictly under 600 nM?
T

And for `CCOC(=O)N[C@@H]1CC[C@@H]2[C@@H](C1)C[C@H]1C(=O)O[C@H](C)[C@H]1[C@H]2/C=C/c1ccc(-c2ccccn2)cc1` ?
T

// repeat for `C[C@H]1OC(=O)[C@@H]2C[C@@H]3C[C@H](NCC#N)CC[C@H]3[C@H](/C=C/c3ccc(-c4cccc(F)c4)cn3)[C@H]12` and report
T

Next:
Quick check: does `C[C@H]1OC(=O)[C@]2(NCC(=O)O)C[C@@H]3CCCC[C@H]3[C@H](/C=C/c3ccc(-c4cccc(F)c4)cn3)[C@H]12` have IC50 under 600 nM?
F

Check `C[C@H]1OC(=O)[C@]2(NCC#N)C[C@@H]3CCCC[C@H]3[C@H](/C=C/c3ccc(-c4cccc(F)c4)cn3)[C@H]12` too.
F

====

target.or.system: Proteinase-activated receptor 1 (Homo sapiens) (UniProt P25116)
assay.overview: Antagonist activity at human PAR1 expressed in KNRK cells assessed as inhibition of agonist-induced intracellular calcium mobilization at 10^-5 M by fluorimetric assay relative to control
Type: functional, cell-based
observed.property: inhibition (%)
Give bare numbers, in %.

Before answering, review these 8 worked examples.
# returns recorded inhibition (system: Proteinase-activated receptor 1 (Homo sapiens) (UniProt P25116)) for `CCOC(=O)N[C@@H]1CC[C@@H]2[C@@H](C1)C[C@H]1C(=O)O[C@H](C)[C@H]1[C@H]2/C=C/c1ccc(-c2cccc(F)c2)cc1`
42

Then this compound: `C[C@H]1OC(=O)[C@]2(NCC(=O)O)C[C@@H]3CCCC[C@H]3[C@H](/C=C/c3ccc(-c4cccc(F)c4)cn3)[C@H]12`
100

Another compound: `Cc1ccnc(N[C@@H]2CC[C@@H]3[C@@H](C2)C[C@H]2C(=O)O[C@H](C)[C@H]2[C@H]3/C=C/c2ccc(-c3cccc(F)c3)cn2)n1`
101

Try this compound next: `C[C@H]1OC(=O)[C@@H]2C[C@@H]3C[C@H](NCC(=O)O)CC[C@H]3[C@H](/C=C/c3ccc(-c4cccc(F)c4)cn3)[C@H]12`
48

Then what about the compound `CCOC(=O)CN[C@@]12C[C@@H]3CCCC[C@H]3[C@H](/C=C/c3ccc(-c4cccc(F)c4)cn3)[C@@H]1[C@@H](C)OC2=O` ?
101

Entry to check: `C[C@H]1OC(=O)[C@]2(NCC#N)C[C@@H]3CCCC[C@H]3[C@H](/C=C/c3ccc(-c4cccc(F)c4)cn3)[C@H]12`
99

And for `C[C@H]1OC(=O)[C@@H]2C[C@@H]3C[C@H](NCC#N)CC[C@H]3[C@H](/C=C/c3ccc(-c4cccc(F)c4)cn3)[C@H]12` ?
99

Let us now turn to `CCOC(=O)N[C@@H]1CC[C@@H]2[C@@H](C1)C[C@H]1C(=O)O[C@H](C)[C@H]1[C@H]2/C=C/c1ccc(-c2ccccn2)cc1`
66

For every item below, please supply its inhibition.
1. C[C@H]1OC(=O)[C@@H]2C[C@@H]3C[C@H](Nc4nc5ccccc5o4)CC[C@H]3[C@H](/C=C/c3ccc(-c4cccc(F)c4)cn3)[C@H]12
2. CCOC(=O)N[C@@H]1CC[C@@H]2[C@@H](C1)C[C@H]1C(=O)O[C@H](C)[C@H]1[C@H]2/C=C/c1ccc(-c2cccc(F)c2)cn1

1: 81; 2: 101

====

assay.overview: Ratio of drug concentration in brain to plasma in Sprague-Dawley rat at 5 mg/kg, po measured at 8 hrs
Format: ADME, organism-based
run.parameters: read-out: BPR
API: label(entry) gives YES if the entry's Kp at 8 h is strictly smaller than 0.5; on equality or larger values it gives NO.

Example entries begin here.
Is it true that Kp at 8 h reported for `C[C@H]1OC(=O)[C@]2(NCC#N)C[C@@H]3CCCC[C@H]3[C@H](/C=C/c3ccc(-c4cccc(F)c4)cn3)[C@H]12` is less than 0.5?
YES

Same for `C[C@H]1OC(=O)[C@]2(NCC(=O)O)C[C@@H]3CCCC[C@H]3[C@H](/C=C/c3ccc(-c4cccc(F)c4)cn3)[C@H]12`
NO

New cases:
Would you kindly verify if Kp at 8 h of `Cc1ccnc(N[C@@H]2CC[C@@H]3[C@@H](C2)C[C@H]2C(=O)O[C@H](C)[C@H]2[C@H]3/C=C/c2ccc(-c3cccc(F)c3)cn2)n1` is strictly less than 0.5?
NO

Quick one: `CCOC(=O)N[C@@H]1CC[C@@H]2[C@@H](C1)C[C@H]1C(=O)O[C@H](C)[C@H]1[C@H]2/C=C/c1ccc(-c2cccc(F)c2)cn1`
NO

Field entry: `CCOC(=O)N[C@@H]1CC[C@@H]2[C@@H](C1)C[C@H]1C(=O)O[C@H](C)[C@H]1[C@H]2/C=C/c1ccc(-c2ccccn2)cc1`
NO

For `C[C@H]1OC(=O)[C@@H]2C[C@@H]3C[C@H](NCC#N)CC[C@H]3[C@H](/C=C/c3ccc(-c4cccc(F)c4)cn3)[C@H]12` then?
YES

Measured values drawn from ChEMBL document CHEMBL4627316 for this set.
